Tested on: PC-12
method_notes: Neuroprotective activity against Abeta25-35-induced […] cells assessed as cell viability at 1 uM preincubated for 2 hrs prior Abeta25-35 challenge measured after 24 hrs by MTT assay
Type: functional
condition_set: Rattus norvegicus
Active and inactive are the calls of the source. The calls are words filed in the database; no cut-off is given here.
metric_name: Activity

> print(dat)
                                item.smiles  test.result
1  Cc1ccccc1/C=C/C(=O)[C@H]1CC[C@H]2[C@@H]3C[C@@H]4O[C@@]45C[C@@H](O)CC[C@]5(C)[C@H]3CC[C@]12C     inactive
2  CC(C)c1ccc(/C=C/C(=O)[C@H]2CC[C@H]3[C@@H]4C[C@@H]5O[C@@]56C[C@@H](O)CC[C@]6(C)[C@H]4CC[C@]23C)cc1     inactive
3  CCOc1ccc(/C=C/C(=O)[C@H]2CC[C@H]3[C@@H]4CC=C5C[C@@H](O)CC[C@]5(C)[C@H]4CC[C@]23C)cc1OC     inactive
4  C[C@]12CC[C@H]3[C@@H](CC=C4C[C@@H](O)CC[C@@]43C)[C@@H]1CC[C@@H]2C(=O)/C=C/c1ccc(Cl)cc1Cl     inactive
5  C[C@]12CC[C@H]3[C@@H](CC=C4C[C@@H](O)CC[C@@]43C)[C@@H]1CC[C@@H]2C(=O)/C=C/c1ccccc1Br     inactive
6  CCOc1ccccc1/C=C/C(=O)[C@H]1CC[C@H]2[C@@H]3CC=C4C[C@@H](O)CC[C@]4(C)[C@H]3CC[C@]12C     inactive
